- System: UACC-257 melanoma
- protocolDetails: NCI tumour cell line growth inhibition, 48 h

molecule: N#C/C(=C\c1cccc(Cl)c1Cl)c1ccccc1
systemUnderTest: UACC-257 melanoma
qualifyingSign: >
TGI / µM: 100
//
molecule: Nc1n[nH]c2cccc(C#Cc3cccc(C(=O)Nc4ccc(CN5CCOCC5)c(C(F)(F)F)c4)c3)c12
systemUnderTest: UACC-257 melanoma
qualifyingSign: =
TGI / µM: 10.6
//
molecule: S=C(N/N=C(/c1ccccc1)c1ccccn1)N(Cc1ccccn1)Cc1ccccn1
systemUnderTest: UACC-257 melanoma
qualifyingSign: =
TGI / µM: 2.42
//
molecule: COc1ccc(N=NC(=Nc2ccccc2)c2ccc(N(CCC#N)CCC#N)cc2)cc1
systemUnderTest: UACC-257 melanoma
qualifyingSign: =
TGI / µM: 56.8
//
molecule: O=CNc1ccc2c(c1)C(=O)c1ccccc1-2
systemUnderTest: UACC-257 melanoma
qualifyingSign: >
TGI / µM: 100
//
molecule: O=C(C1OC1c1ccc(Br)cc1O)C12CC3CC(CC(C3)C1)C2 (stereo not given)
systemUnderTest: UACC-257 melanoma
qualifyingSign: >
TGI / µM: 100
//
molecule: O=C1CCCCN1c1ccccc1C#C/C=C\C#Cc1ccccc1C(F)(F)F
systemUnderTest: UACC-257 melanoma
qualifyingSign: =
TGI / µM: 18.3
//
molecule: O=C(/C=C/c1ccc([N+](=O)[O-])cc1)c1ccc(NCc2nc3ccccc3[nH]2)cc1
systemUnderTest: UACC-257 melanoma
qualifyingSign: =
TGI / µM: 13.8
//
molecule: Nn1c(Nc2ccc(S(=O)(=O)Nc3ncccn3)cc2)nnc(/C=C/c2c(O)ccc3ccccc23)c1=O
systemUnderTest: UACC-257 melanoma
qualifyingSign: =
TGI / µM: 55.2
//
molecule: CN1CC[C@@H](NC(=O)Nc2ccc(C#N)cc2)C[C@@H]1c1nc2ccccc2[nH]1
systemUnderTest: UACC-257 melanoma
qualifyingSign: >
TGI / µM: 100
//
molecule: NC(N)=Nc1ccc(CC(N)NCC(=O)O)cc1 (stereo not given)
systemUnderTest: UACC-257 melanoma
qualifyingSign: >
TGI / µM: 25
//
molecule: CCCCCC1=CC(=O)C1(Cl)Cl
systemUnderTest: UACC-257 melanoma
qualifyingSign: =
TGI / µM: 33.3
//
molecule: NS(=O)(=O)c1nnc(NC(=O)Nc2ccc(Cl)c(Cl)c2)s1
systemUnderTest: UACC-257 melanoma
qualifyingSign: =
TGI / µM: 42
//
molecule: CC(C)(C)c1cc2ccc(C(N)=O)cc2c(=O)[nH]1
systemUnderTest: UACC-257 melanoma
qualifyingSign: >
TGI / µM: 100
//
molecule: CC(C)[C@@H]1C=C2CC[C@H]3[C@](C)(CN)CCC[C@]3(C)[C@H]2CC1
systemUnderTest: UACC-257 melanoma
qualifyingSign: =
TGI / µM: 9.88
//
molecule: Cc1cc2c(C)[nH]nc2c(C(=O)O)c1C
systemUnderTest: UACC-257 melanoma
qualifyingSign: >
TGI / µM: 100
//
molecule: CC(C)(C)c1cc2c(O)c3cccc4c(=O)c5cccc6c5-c(c34)c2c(c1)c6=O
systemUnderTest: UACC-257 melanoma
qualifyingSign: >
TGI / µM: 100
//
molecule: c1ccc2c(c1)Cn1c-2nc2ccccc21
systemUnderTest: UACC-257 melanoma
qualifyingSign: >
TGI / µM: 100
//
molecule: CN(C)c1cc(NN=C(c2ccc(O)cc2)c2ccc(O)cc2)c([N+](=O)[O-])cc1[N+](=O)[O-]
systemUnderTest: UACC-257 melanoma
qualifyingSign: =
TGI / µM: 27.3
//
molecule: CCOC(=O)C1=C(C(=O)OCC)C2c3ccccc3C=CN2C(C(=O)OCC)=C(SC)S1 (stereo not given)
systemUnderTest: UACC-257 melanoma
qualifyingSign: >
TGI / µM: 100
//
molecule: N#CC(C#N)=C/C=C(\Sc1nc2ccccc2s1)c1ccc(Cl)cc1
systemUnderTest: UACC-257 melanoma
qualifyingSign: =
TGI / µM: 25.4
//
molecule: N#CC(Cc1ccccc1)N(CCC1=CCCCC1)C(c1ccccc1)c1ccccc1 (stereo not given)
systemUnderTest: UACC-257 melanoma
qualifyingSign: >
TGI / µM: 100
//
molecule: O=C(c1ccccn1)C1(N2CCCCC2)CCCCC1
systemUnderTest: UACC-257 melanoma
qualifyingSign: >
TGI / µM: 100
//
molecule: S=c1sc2c(n1-c1ccccc1)NC=NC2S (stereo not given)
systemUnderTest: UACC-257 melanoma
qualifyingSign: >
TGI / µM: 100
//
molecule: CCCCOC(=O)Nc1ccc(S(=O)(=O)Nc2ccccc2Cl)cc1
systemUnderTest: UACC-257 melanoma
qualifyingSign: =
TGI / µM: 98.4
//
molecule: C/C(CCn1[nH]c(=O)ccc1=O)=N\NC(=O)C(=O)NN
systemUnderTest: UACC-257 melanoma
qualifyingSign: >
TGI / µM: 100
//
molecule: O=[N+]([O-])c1cc(C=NC23CC4CC(CC(C4)C2)C3)ccc1Cl
systemUnderTest: UACC-257 melanoma
qualifyingSign: =
TGI / µM: 39.6
//
molecule: NC1(c2cc3ccccc3s2)CCCC1
systemUnderTest: UACC-257 melanoma
qualifyingSign: =
TGI / µM: 81.2
//
molecule: O=C(/C=C/c1ccc2c(c1)OCO2)c1ccc(O)cc1
systemUnderTest: UACC-257 melanoma
qualifyingSign: =
TGI / µM: 28.8
//
molecule: Cc1ccccc1C(=N)c1ccccc1Cc1cccc2ccccc12
systemUnderTest: UACC-257 melanoma
qualifyingSign: >
TGI / µM: 100
//
molecule: Nc1nc2c(c(-c3cccc(Cl)c3)n1)COC/C2=C\c1cccc(Cl)c1
systemUnderTest: UACC-257 melanoma
qualifyingSign: >
TGI / µM: 100
//
molecule: CCN(Cc1ccc(F)cc1)c1cc(Cl)c(CO)c(Cl)c1
systemUnderTest: UACC-257 melanoma
qualifyingSign: =
TGI / µM: 20.4
//
molecule: CCC(=O)NCC1CCCN2CCCCC12 (stereo not given)
systemUnderTest: UACC-257 melanoma
qualifyingSign: >
TGI / µM: 100
//
molecule: O=C1CCC2(c3ccc(Cl)cc3)Nc3ccncc3N12 (stereo not given)
systemUnderTest: UACC-257 melanoma
qualifyingSign: >
TGI / µM: 10
//
molecule: O=[N+]([O-])c1ccc(Cl)cc1N/N=C/c1ccnc2ccccc12
systemUnderTest: UACC-257 melanoma
qualifyingSign: >
TGI / µM: 100
//
molecule: COC(=O)C1CC(C=[N+](C)C)=C(SC)N1C(=O)OCc1ccccc1 (stereo not given)
systemUnderTest: UACC-257 melanoma
qualifyingSign: >
TGI / µM: 100
//
molecule: COC(=O)CC(c1ccccc1)C1(c2ccccc2)SCCS1 (stereo not given)
systemUnderTest: UACC-257 melanoma
qualifyingSign: >
TGI / µM: 290
//
molecule: O=C1CN(c2cccc(Cl)c2)C(=O)CN1CCN1CC(=O)N(c2cccc(Cl)c2)CC1=O
systemUnderTest: UACC-257 melanoma
qualifyingSign: >
TGI / µM: 100
//
molecule: Cc1ccc(-c2csc(=Nc3ccccc3)n2NC(=O)c2ccncc2)cc1
systemUnderTest: UACC-257 melanoma
qualifyingSign: >
TGI / µM: 100
//
molecule: O=C(/C=C/c1ccc(O)cc1)c1ccc(O)cc1
systemUnderTest: UACC-257 melanoma
qualifyingSign: =
TGI / µM: 74.7
//
molecule: CC(=O)c1c2c(c3ccccc3c1O)O[C@@H]1OCC[C@H]21
systemUnderTest: UACC-257 melanoma
qualifyingSign: >
TGI / µM: 100
//
molecule: O=S(=O)(c1ccccc1)N1CCN(S(=O)(=O)c2ccccc2)c2ccccc21
systemUnderTest: UACC-257 melanoma
qualifyingSign: >
TGI / µM: 100
//
molecule: CC(=O)Oc1cccc2c1C(=O)CCCC2
systemUnderTest: UACC-257 melanoma
qualifyingSign: >
TGI / µM: 100
//
molecule: CCN(CC)C(=S)N/N=C/c1cc([N+](=O)[O-])ccc1O
systemUnderTest: UACC-257 melanoma
qualifyingSign: =
TGI / µM: 32.2
//
molecule: Oc1ccccc1CNCc1nc2ccccc2[nH]1
systemUnderTest: UACC-257 melanoma
qualifyingSign: >
TGI / µM: 100

----------
Item-by-item account of TGI
- Tested on: OVCAR-4 ovarian
- protocolDetails: NCI tumour cell line growth inhibition, 48 h

molecule: CCCCCC[C@@H]1CCC2C(CO)[C@@H](O)CC[C@@H]2C1 (stereo not given in full)
qualifyingSign: =
TGI, µM: 30.6
//
molecule: CC(C)(C)c1cc2c(O)c3cccc4c(=O)c5cccc6c5-c(c34)c2c(c1)c6=O
qualifyingSign: >
TGI, µM: 100
//
molecule: Cc1ccc(/C=C/C(=O)CCN(C)C)cc1
qualifyingSign: =
TGI, µM: 30.4
//
molecule: CC(C)[C@@H]1C=C2CC[C@H]3[C@](C)(CN)CCC[C@]3(C)[C@H]2CC1
qualifyingSign: =
TGI, µM: 34.3
//
molecule: O=C(C1OC1c1ccc(Br)cc1O)C12CC3CC(CC(C3)C1)C2 (stereo not given)
qualifyingSign: =
TGI, µM: 81.4
//
molecule: Nc1ccccc1SC(CC(=O)c1ccccc1)c1cccc([N+](=O)[O-])c1 (stereo not given)
qualifyingSign: =
TGI, µM: 27.8
//
molecule: CCN(C(=O)N1CCN(c2cc3c(cc2F)c(=O)c(C(=O)O)cn3C2CC2)CC1)c1nc(-c2ccc(Cl)cc2)cs1
qualifyingSign: >
TGI, µM: 57.1
//
molecule: CC(C)=CCC[C@@H](C)c1c(O)c(O)c(C)c2nccnc12
qualifyingSign: >
TGI, µM: 100
//
molecule: COc1ccc(CN2C(=O)/C(=C\c3cc(OC)c(OC)c(OC)c3)c3ccccc32)cc1
qualifyingSign: >
TGI, µM: 100
//
molecule: CCOC(=O)Nc1sc2c(c1C#N)CCCC2
qualifyingSign: >
TGI, µM: 100

The measured values listed here are drawn from PubChem BioAssay (NCI).
